Biological target: T1, monkey C5-mmh (monkey, UniProt P01031 19-1676 (human entry), limits assumed)
T1 construct: Expressed with a C-terminal myc-myc-hexahistidine tag
T1 chain: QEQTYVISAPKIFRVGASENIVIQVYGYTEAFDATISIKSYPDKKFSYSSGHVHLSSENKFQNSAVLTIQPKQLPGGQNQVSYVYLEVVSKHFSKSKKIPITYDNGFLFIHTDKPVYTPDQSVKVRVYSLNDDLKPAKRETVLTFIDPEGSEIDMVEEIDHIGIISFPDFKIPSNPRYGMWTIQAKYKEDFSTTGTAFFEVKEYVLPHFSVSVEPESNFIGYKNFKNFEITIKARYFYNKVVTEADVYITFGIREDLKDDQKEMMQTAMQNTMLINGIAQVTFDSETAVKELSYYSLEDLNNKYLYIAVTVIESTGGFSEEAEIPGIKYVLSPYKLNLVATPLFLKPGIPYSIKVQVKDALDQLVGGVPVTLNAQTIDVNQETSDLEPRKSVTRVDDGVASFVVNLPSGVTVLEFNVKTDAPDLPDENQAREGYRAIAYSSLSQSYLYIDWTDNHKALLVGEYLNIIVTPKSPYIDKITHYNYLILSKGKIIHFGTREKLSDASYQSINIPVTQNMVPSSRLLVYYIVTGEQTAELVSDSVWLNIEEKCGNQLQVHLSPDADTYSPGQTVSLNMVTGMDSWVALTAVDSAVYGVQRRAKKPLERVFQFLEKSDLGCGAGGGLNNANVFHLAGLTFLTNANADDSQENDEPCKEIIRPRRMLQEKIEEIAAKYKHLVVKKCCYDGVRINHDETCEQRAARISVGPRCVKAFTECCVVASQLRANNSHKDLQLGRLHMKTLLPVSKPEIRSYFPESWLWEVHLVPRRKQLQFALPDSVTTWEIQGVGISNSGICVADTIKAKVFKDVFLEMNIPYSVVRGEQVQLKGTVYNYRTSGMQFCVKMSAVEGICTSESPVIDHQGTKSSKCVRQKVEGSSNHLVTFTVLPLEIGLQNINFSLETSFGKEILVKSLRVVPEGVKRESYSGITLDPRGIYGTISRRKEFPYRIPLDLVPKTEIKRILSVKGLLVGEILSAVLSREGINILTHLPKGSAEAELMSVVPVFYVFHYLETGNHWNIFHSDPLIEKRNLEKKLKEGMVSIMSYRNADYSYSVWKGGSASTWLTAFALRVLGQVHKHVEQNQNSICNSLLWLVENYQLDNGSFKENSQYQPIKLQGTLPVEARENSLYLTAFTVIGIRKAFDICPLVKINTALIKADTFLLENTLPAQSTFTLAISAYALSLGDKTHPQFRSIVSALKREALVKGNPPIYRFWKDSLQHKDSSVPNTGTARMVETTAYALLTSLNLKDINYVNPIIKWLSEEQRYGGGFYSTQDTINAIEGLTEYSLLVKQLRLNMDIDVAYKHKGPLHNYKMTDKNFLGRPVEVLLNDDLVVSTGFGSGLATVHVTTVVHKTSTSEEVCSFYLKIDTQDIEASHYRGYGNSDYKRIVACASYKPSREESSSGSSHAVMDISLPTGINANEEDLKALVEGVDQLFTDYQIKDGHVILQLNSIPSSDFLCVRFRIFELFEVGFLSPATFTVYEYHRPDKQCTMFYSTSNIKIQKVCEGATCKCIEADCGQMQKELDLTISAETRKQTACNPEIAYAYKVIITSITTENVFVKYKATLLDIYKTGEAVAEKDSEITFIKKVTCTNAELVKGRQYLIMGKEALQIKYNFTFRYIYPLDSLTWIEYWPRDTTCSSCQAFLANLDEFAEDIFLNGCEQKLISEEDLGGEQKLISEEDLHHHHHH
Experiment: SPR, mAb captured by anti-hFc, 25C

BINDER: H4H12163P (antibody, human IgG4, V domains shown) VH: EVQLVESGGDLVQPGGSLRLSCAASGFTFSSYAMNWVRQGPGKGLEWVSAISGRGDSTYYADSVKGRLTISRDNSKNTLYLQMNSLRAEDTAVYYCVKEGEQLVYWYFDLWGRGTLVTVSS VL: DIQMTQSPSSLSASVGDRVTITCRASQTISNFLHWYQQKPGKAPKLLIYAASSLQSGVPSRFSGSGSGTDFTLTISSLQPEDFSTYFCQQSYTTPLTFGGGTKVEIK
RESULT UNITS: RU
100 nM monkey C5-mmh Bound (RU): 98
